Origin of measurements: patent US8921414B2

Tested on: normal human fibroblasts (NFF)
Experiment: Additional in vitro activity: cytotoxic activity, NFF
Type: cell-based
Conditions: concentration with activity
Entries and their cytotoxic activity against normal human fibroblasts (NFF) at

Observe how each entry below is paired with its result.
CC/C=C/CCCCCCCCCCCC(O)CC1CC(O)CC2(CC3OC(=O)C=CC3O2)O1 (stereo not shown) has a reported cytotoxic activity against normal human fibroblasts (NFF) at of 10 µg/mL

CCCCCCCCCCCCCC(CC1CC(O)CC2(CC3OC(=O)C=CC3O2)O1)OC(C)=O (stereo not shown) has a reported cytotoxic activity against normal human fibroblasts (NFF) at of 30 µg/mL

CCCCCCCCCCCCCC(CC1C=CCC2(CC3OC(=O)C=CC3O2)O1)OC(C)=O (stereo not shown) has a reported cytotoxic activity against normal human fibroblasts (NFF) at of > 10 µg/mL

Continuing:
CCCCCCCCCCCCCC(O)CC1CC(O)CC2(CC3OC(=O)C=CC3O2)O1 (stereo not shown) has a reported cytotoxic activity against normal human fibroblasts (NFF) at of 30 µg/mL

* * *

System: MM96L melanoma
Test: Cell growth inhibition (Table 22), MM96L
Format: cell-based
Details: Homo sapiens, read-out: IC50 (drug dose which inhibits cell growth by 50%) MM96L
recorded_metric: IC50 (µg/mL)
Numbers only; they are read as µg/mL.

Observe how each entry below is paired with its result.
CCCCCCCCCCCCCC(CC1C=CCC2(CC3OC(=O)C=CC3O2)O1)OC(C)=O (stereo not shown) [EBI-42] has a reported IC50 of 6

CCCCCCCCCCCCCC(CC1CC(O)CC2(CC3OC(=O)C=CC3O2)O1)OC(C)=O (stereo not shown) [EBI-25] has a reported IC50 of 1.6

CC/C=C/CCCCCCCCCCCC(O)CC1CC(O)CC2(CC3OC(=O)C=CC3O2)O1 (stereo not shown) [EBI-24] has a reported IC50 of 1.3

Continuing:
CCCCCCCCCCCCCC(O)CC1CC(O)CC2(CC3OC(=O)C=CC3O2)O1 (stereo not shown) [EBI-23] has a reported IC50 of 0.15
